- Test system: OVCAR-5 ovarian
- METHOD_DESCRIPTION: NCI tumour cell line growth inhibition, 48 h
What GI50 was measured for each of the following?

Field: GI50. Fill in for each record below.
1. O=C(O)c1ccc(NCn2nc(-c3ccccc3O)oc2=S)cc1O
2. CC(=O)N[C@@H](Cc1ccc(OP(=O)(O)O)cc1)C(=O)N[C@H]1CCC(=O)N2CCC[C@@H](C(=O)NCc3cccc4ccccc34)N2C1=O
3. CCOC(=O)Nc1ccc2c3c(cccc13)-c1ccccc1-2

Completion:
["> 100 µM", "> 25 µM", "> 100 µM"]

Field: GI50. Fill in for each record below.
1. Fc1cc(C2=Nn3c(nnc3-c3cc(F)c(Cl)cc3Cl)SC2)c(Cl)cc1Cl
2. CC12OC(C(=O)C13CC3)C1C(=O)c3cccc(O)c3C(=O)C12 (stereo not given)

Completion:
1: 56.8 µM; 2: 24.5 µM
